- system.under.test: β2 adrenergic receptor (Homo sapiens (Human))
- Sequence (P07550 whole entry, species assumed): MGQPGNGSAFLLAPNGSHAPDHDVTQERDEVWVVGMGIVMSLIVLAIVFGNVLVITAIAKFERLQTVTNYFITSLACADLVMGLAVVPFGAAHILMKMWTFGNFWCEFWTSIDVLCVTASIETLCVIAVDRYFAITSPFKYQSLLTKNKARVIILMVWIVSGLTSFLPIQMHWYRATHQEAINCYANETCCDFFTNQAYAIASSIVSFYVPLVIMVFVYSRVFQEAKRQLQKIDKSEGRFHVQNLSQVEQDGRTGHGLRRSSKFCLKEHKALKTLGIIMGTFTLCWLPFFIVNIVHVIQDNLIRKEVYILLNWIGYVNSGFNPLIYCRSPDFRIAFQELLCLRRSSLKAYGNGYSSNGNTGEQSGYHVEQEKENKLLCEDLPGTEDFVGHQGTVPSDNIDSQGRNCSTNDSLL
- assay.procedure: cAMP Gs dynamic HTRF assay, β2 expressing CHO cells
- Format: cell-based
- measurement.parameters: B2-AR; CHO-K1 (HitHunter); read-out: Average pEC50 [Receptor subtype: B2-AR; Cell type: CHO-K1 (HitHunter)] (converted)

- compound: "Cc1ccc([C@@H](O)CNC(C)(C)C)nc1"
  EC50: "0.01 to 0.1 µM"
- compound: "CC(C)(C)NC[C@H](O)c1cccc(N2CCCC2)n1"
  EC50: "< 0.01 µM"
- compound: "CC(C)(C)NC[C@@H](O)c1cccc(C2CCC2)n1"
  EC50: "0.01 to 0.1 µM"
- compound: "O[C@H](CNC1Cc2ccccc2C1)c1cccc(C(F)(F)F)n1"
  EC50: "> 1 µM"
- compound: "Cc1cc([C@@H](O)CNC(C)(C)C)nc(C(F)(F)F)c1"
  EC50: "0.01 to 0.1 µM"
- compound: "Cc1ncc([C@@H](O)CNC(C)(C)C)c(C)n1"
  EC50: "0.1 to 1 µM"
- compound: "COc1ccc(C[C@@H](C)NC[C@H](O)c2cc(Cl)cnc2C)cc1"
  EC50: "0.01 to 0.1 µM"
- compound: "O[C@@H](CNC1CCC1)c1cccc(C(F)(F)F)n1"
  EC50: "< 0.01 µM"
- compound: "Cc1ccc([C@H](O)CNC(C)(C)C)nc1C(F)(F)F"
  EC50: "0.01 to 0.1 µM"
- compound: "Cc1ccc([C@@H](O)CNC(C)(C)C)c(C)n1"
  EC50: "< 0.01 µM"
- compound: "CC(C)(C)NCC(O)c1cc(C#N)cc(C(F)(F)F)n1 (centres unmarked)"
  EC50: "0.1 to 1 µM"
- compound: "CC(C)(C)NC[C@@H](O)c1cccc(N2CCOCC2)n1"
  EC50: "0.01 to 0.1 µM"
- compound: "CCOc1cccc([C@H](O)CNC(C)(C)C)n1"
  EC50: "0.1 to 1 µM"
- compound: "Cc1cccc(-c2cccc([C@H](O)CNC(C)(C)C)n2)c1"
  EC50: "0.1 to 1 µM"
- compound: "Cc1ncccc1[C@@H](O)CNC(C)(C)C"
  EC50: "0.01 to 0.1 µM"
- compound: "CC(C)(C)NC[C@H](O)c1cccnc1-n1nccn1"
  EC50: "> 1 µM"
- compound: "CC(C)(C)NC[C@H](O)c1cccc(Oc2ccccc2)n1"
  EC50: "0.01 to 0.1 µM"
- compound: "CC(C)(C)NC[C@H](O)c1cccnc1C(F)(F)F"
  EC50: "0.1 to 1 µM"
- compound: "Cc1cccc(-c2cccc([C@@H](O)CNC(C)(C)C)n2)c1"
  EC50: "< 0.01 µM"
- compound: "CC(C)(C)NC[C@H](O)c1ccncc1C(F)(F)F"
  EC50: "> 1 µM"
